# TEST_SYSTEM: Renin (Homo sapiens, UniProt P00797)
# Sequence (P00797 whole entry): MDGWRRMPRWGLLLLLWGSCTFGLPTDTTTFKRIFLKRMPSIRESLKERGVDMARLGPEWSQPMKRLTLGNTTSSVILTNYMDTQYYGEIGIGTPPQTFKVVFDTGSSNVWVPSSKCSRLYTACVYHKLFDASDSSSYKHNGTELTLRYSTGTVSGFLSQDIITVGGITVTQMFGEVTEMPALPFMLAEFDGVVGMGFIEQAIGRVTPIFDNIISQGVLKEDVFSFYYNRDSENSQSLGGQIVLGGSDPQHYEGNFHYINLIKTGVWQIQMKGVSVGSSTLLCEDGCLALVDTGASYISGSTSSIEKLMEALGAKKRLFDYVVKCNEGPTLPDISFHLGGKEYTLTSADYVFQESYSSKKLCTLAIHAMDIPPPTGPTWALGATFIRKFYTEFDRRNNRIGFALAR
# MEASUREMENT_PROTOCOL: Inhibition of human rennin in buffer assessed as accumulation of angiotensin 1 using human tetradecapeptide by immunoassay
MEASURE: log10(IC50) (log10 of the value in nM)
Would you kindly interpret these values as log10 of IC50 expressed in nM?

Query :: Name the recorded log10(IC50) for O=C(C1=C(c2ccc(CCCOc3c(F)ccc(F)c3Cl)cc2)C(F)(F)CNC1)N(Cc1cccc(Cl)c1Cl)C1CC1 .
Result :: 2.90

Query :: Data request, read-out log10(IC50), for O=C(C1=C(c2ccc(CCCOc3c(F)ccc(F)c3Cl)cc2)C[C@H]2CC[C@H]1N2)N(Cc1cccc(Cl)c1Cl)C1CC1
Result :: -0.26

Query :: Return reported log10(IC50); argument: COc1cccc(CN(C(=O)C2=C(c3ccc(CCCOc4c(F)ccc(F)c4Cl)cc3)C[C@H]3C[S+]([O-])C[C@H]2N3)C2CC2)c1C (some centres not stated)
Result :: 1.81

Query :: For the compound shown here, CC1(C)CNCC(C(=O)N(Cc2cccc(Cl)c2Cl)C2CC2)=C1c1ccc(CCCOc2c(F)ccc(F)c2Cl)cc1 , give the reported log10(IC50).
Result :: 1.49

Query :: Sample COc1cccc(CN(C(=O)C2=C(c3ccc(CCCOc4c(F)ccc(F)c4Cl)cc3)C3(CC3)CNC2)C2CC2)c1C — what was its log10(IC50)?
Result :: 2.32

Query :: Name the reported log10(IC50) value associated with the compound COc1cccc(CN(C(=O)C2=C(c3ccc(CCCOc4c(F)ccc(F)c4Cl)cc3)C[C@H]3COC[C@H]2N3)C2CC2)c1C
Result :: -0.31

Query :: Fill in: log10(IC50) of O=C(C1=C(c2ccc(CCCOc3c(F)ccc(F)c3Cl)cc2)C[C@H]2COC[C@H]1N2)N(Cc1cccc(Cl)c1Cl)C1CC1 is ___
Result :: -0.17

====

These compounds were tested on Cytochrome P450 3A4 (Homo sapiens); IC50 is the recorded read-out.
Sequence (P08684 whole entry): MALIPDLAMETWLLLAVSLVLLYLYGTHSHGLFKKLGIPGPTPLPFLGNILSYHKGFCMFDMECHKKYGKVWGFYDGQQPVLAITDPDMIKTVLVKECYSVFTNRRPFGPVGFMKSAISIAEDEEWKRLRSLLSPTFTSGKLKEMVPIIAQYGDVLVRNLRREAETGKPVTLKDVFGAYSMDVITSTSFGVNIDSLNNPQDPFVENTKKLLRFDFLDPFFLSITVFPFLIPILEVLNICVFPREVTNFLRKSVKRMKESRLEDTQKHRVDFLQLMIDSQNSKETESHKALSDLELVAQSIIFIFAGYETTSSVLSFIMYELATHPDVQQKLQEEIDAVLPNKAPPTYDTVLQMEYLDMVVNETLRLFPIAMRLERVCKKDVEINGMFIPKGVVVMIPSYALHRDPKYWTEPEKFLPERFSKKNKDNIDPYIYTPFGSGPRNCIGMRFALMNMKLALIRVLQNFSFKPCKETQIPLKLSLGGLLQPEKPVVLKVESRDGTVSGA
# output: bare number, implied unit µM

Query :: Quick one: IC50 for COc1cccc(CN(C(=O)C2=C(c3ccc(CCCOc4c(F)ccc(F)c4Cl)cc3)C[C@H]3COC[C@H]2N3)C2CC2)c1C ?
Result :: 1

Query :: Suppose we examine the compound O=C(C1=C(c2ccc(CCCOc3c(F)ccc(F)c3Cl)cc2)C[C@H]2CC[C@H]1N2)N(Cc1cccc(Cl)c1Cl)C1CC1 ; what IC50 value has been reported?
Result :: 1.9

Query :: Returns the measured IC50 for the input compound. Input: O=C(C1=C(c2ccc(CCCOc3c(F)ccc(F)c3Cl)cc2)CCNC1)N(Cc1cccc(Cl)c1Cl)C1CC1
Result :: 1.3
